Hello, the source for this data is ChEMBL document CHEMBL4689842, in case you need it.

system: Fibroblast; assay: Multiplex assay against human fibroblast; format: toxicity, cell-based; conditions: 24 h, 1 µM, compound concentration 1 uM, replicate 1
reported.metric: Population Hoechst High Intensity Objects (%)
Write the value in % as a bare number.

Examples from the recorded data:
CCCCN(CC)c1nc(C)nc2c1c(C)cn2-c1c(C)cc(C)cc1C.Cl
11
C=CC(=O)Nc1cc(-n2c(=O)ccc3cnc4ccc(-c5ccc(NS(C)(=O)=O)cc5)cc4c32)ccc1C
11
CCCc1cc(C)[nH]c(=O)c1CNC(=O)c1cc(-c2ccc(N3CCN(C(C)C)CC3)nc2)cc2c1cnn2C(C)C
16

Measured Population Hoechst High Intensity Objects (%) of `CC(C)c1cc(Nc2nc(N3CCC[C@H](N)C3)ncc2C(N)=O)cc(C(C)C)n1` : 25

The recorded Population Hoechst High Intensity Objects (%) for `CC(/C=C1\SC(=S)N(CCCC(=O)Nc2ccc(C(=O)O)c(O)c2)C1=O)=C\c1ccccc1` is 7

Given item CC(C)[C@H](CO)Nc1nc(Nc2cccc(Cl)c2)c2ncn(C(C)C)c2n1 [PURVALANOLA] , the value recorded as its Population Hoechst High Intensity Objects (%) is 18

// field: Population Hoechst High Intensity Objects (%); key: `CCOC(=O)CCNc1cc(N2CCc3ccccc3CC2)nc(-c2ccccn2)n1` ; value = 12

Value of measured Population Hoechst High Intensity Objects (%) for the entry `Cl.NC[C@@H]1O[C@H](C23CC4CC(CC(C4)C2)C3)Cc2c1ccc(O)c2O` : 14

# molecule CCOc1ccn(-c2ccc(F)cc2)c(=O)c1C(=O)Nc1ccc(Oc2ccnc(N)c2Cl)c(F)c1 [BMS-777607] ; its Population Hoechst High Intensity Objects (%) = 11

Noted for `N#Cc1cccc(C(=O)Nc2cc(-c3ccccc3)nn2-c2ccccc2)c1` : its Population Hoechst High Intensity Objects (%) reads 8

Measured Population Hoechst High Intensity Objects (%), `Cc1ccc(NC(=O)Nc2cc(C(F)(F)F)ccc2F)cc1Nc1ccc2c(c1)NC(=O)/C2=C\c1ccc[nH]1` : 8

Record summary for `Cc1c(P(=S)(c2ccccc2)c2ccccc2)n2ccccc2[n+]1C/C=C/c1ccccc1.[Br-]` : reported Population Hoechst High Intensity Objects (%) = 9

Reported Population Hoechst High Intensity Objects (%) for Oc1cccc(-c2nc(N3CCOCC3)c3oc4ncccc4c3n2)c1 [PI-103] was 14

----------
tested on: Fibroblast; assay: Multiplex assay against human fibroblast; assay type: toxicity, cell-based; details: 12 h, 1 µM, compound concentration 1 uM, replicate 2
Population Healthy Nuclei (%) of 60% or higher: true. Under 60%: false.

CC(C)c1cc(Nc2nc(N3CCC[C@H](N)C3)ncc2C(N)=O)cc(C(C)C)n1
true
CCOc1ccn(-c2ccc(F)cc2)c(=O)c1C(=O)Nc1ccc(Oc2ccnc(N)c2Cl)c(F)c1
false
Cc1ccc(NC(=O)Nc2cc(C(F)(F)F)ccc2F)cc1Nc1ccc2c(c1)NC(=O)/C2=C\c1ccc[nH]1
false

Ask | # bool: Population Healthy Nuclei (%) of `Cc1c(P(=S)(c2ccccc2)c2ccccc2)n2ccccc2[n+]1C/C=C/c1ccccc1.[Br-]` >= 60%
Reply | false

----------
test system: U2OS; assay: Multiplex assay against U2OS; assay type: toxicity, cell-based; details: human, 48 h, 10 µM, compound concentration 10 uM, replicate 1
Simple rule here: Population Healthy Nuclei (%) less than 70% is yes (1), otherwise no (0).

Example entries begin here.
c1ccc(-c2oc3ncnc(NC[C@@H]4CCCO4)c3c2-c2ccccc2)cc1
yes (1)
CN(c1cc(C(F)(F)F)nc(OCCC(=O)O)n1)c1cccc2c1CCC2
no (0)
CC(C)[C@H](CO)Nc1nc(Nc2cccc(Cl)c2)c2ncn(C(C)C)c2n1
yes (1)

As a next step, examine the compound that follows.
Ask | Lab note: Population Healthy Nuclei (%) threshold 70%. Does this compound come in strictly under it? `C[C@@H](Oc1cc(-n2cnc3ccc(CN4CCN(C)CC4)cc32)sc1C(N)=O)c1ccccc1C(F)(F)F`
Reply | yes (1)

----------
tested on: Fibroblast; test: Incucyte cell viability with human fibroblast; assay type: toxicity, cell-based; conditions: 24 h, 10 µM, compound concentration 10 uM, replicate number 1, timepoint 24 hours; note: filed as whole numbers so only -1 and 0 and 1 occur
Recorded Growth Rate, one value per entry.
// print number alone

CCOC(=O)c1ncn2c1CN(C)C(=O)c1cc(F)ccc1-2
1
CN1CCN(Cc2ccc(-c3cnc4[nH]cc(-c5ccc6[nH]ccc6c5)c4c3)cc2)CC1
0
C[C@@H](Oc1cc(-n2cnc3ccc(CN4CCN(C)CC4)cc32)sc1C(N)=O)c1ccccc1C(F)(F)F
0

Sample `C=CC(=O)Nc1cc(-n2c(=O)ccc3cnc4ccc(-c5ccc(NS(C)(=O)=O)cc5)cc4c32)ccc1C` ; Growth Rate observed: 1

// Growth Rate value for Cl.Cn1c2c(c3ccc(Cl)c(Cl)c31)C(C#N)C1(CCNCC1)NC2=O (configuration not stated) : 0

The compound listed as `C[C@@H](NC(=O)Nc1cc2[nH]ncc2c(CO)n1)c1ccccc1` has a reported Growth Rate of 0

Notebook: `COc1ncc(F)cc1CNc1ccc(Cc2c[nH]c3ncc(C)cc23)c(F)n1` , Growth Rate read as 0

Kindly note the recorded Growth Rate for `COc1ccc2c(c1)O[C@H](c1ccc(OC)c(OC)c1)C[C@@H]2NC(=O)C1(c2ccc3c(c2)OC(F)(F)O3)CC1` , which is 1

Record summary for `CCOc1ccn(-c2ccc(F)cc2)c(=O)c1C(=O)Nc1ccc(Oc2ccnc(N)c2Cl)c(F)c1` : reported Growth Rate = 0

Noted for `NC(=O)c1ccc2nc(-c3ccc(C4(N)CCC4)cc3)c(-c3ccccc3)n2n1` : its Growth Rate reads 1

Lookup result for `COc1cc(Nc2ccnc3ccc(Br)cc23)cc(OC)c1OC` ; measured Growth Rate: 0

Lab note: measured Growth Rate of `NS(=O)(=O)c1cc(NC(=O)Cc2ccccc2)ccc1Oc1cccc(Cl)c1` was 1

Notebook: `CCc1cc(Nc2nccc(-c3c(-c4ccc(OC)c(C(=O)Nc5c(F)cccc5F)c4)nc4ccccn34)n2)c(OC)cc1N1CCC(N2CCN(S(C)(=O)=O)CC2)CC1` , Growth Rate read as 1

// CN(CCOc1ccc(CC2SC(=O)NC2=O)cc1)c1ccccn1 (configuration not stated) : Growth Rate value = 1

The compound listed as `c1cc(CN2CCCNCCNCCCNCC2)ccc1CN1CCCNCCNCCCNCC1` shows Growth Rate equal to 0

Memo: `CN1CCN(c2ccc(-c3cccc(CN4CCOCC4)c3)cc2NC(=O)c2c[nH]c(=O)cc2C(F)(F)F)CC1` , reported Growth Rate: 1

Input `C/C(=C/C=C/C(C)=C/C(=O)O)c1cc(C(C)(C)C)cc(C(C)(C)C)c1OCC(F)F` . Output Growth Rate: 0

Short answer for `Oc1cccc(-c2nc(N3CCOCC3)c3oc4ncccc4c3n2)c1` : Growth Rate was 0

Memo: `COc1cc(OC)c(NC(=O)c2ccc(Cc3cc4c(cc3C)C(C)(C)CCC4(C)C)o2)c(OC)c1` , reported Growth Rate: 1

Form field Growth Rate, entry CC(C)NCC(O)COc1cccc2ccccc12.Cl (configuration not stated) [PROPRANOLOL HYDROCHLORIDE] : 1

get_value(item= `N#CC1(c2ccccn2)CCN(Cc2cc(C(=O)O)c(=O)n3ccccc23)CC1` , readout=Growth Rate) returns 0

Notebook: `Cc1cn2cc(CC(=O)N3CCC4(CC3)CN(Cc3ccc(-n5nccn5)cc3Cl)C4)nc2s1` , Growth Rate read as 1

Memo: `CC[C@H](Nc1ncnc2[nH]cnc12)c1nc2cccc(F)c2c(=O)n1-c1ccccc1` , reported Growth Rate: 1

----------
system: HEK-293T; assay: Multiplex assay against HEK293T; type: toxicity, cell-based; settings: human, 48 h, 10 µM, compound concentration 10 uM, replicate 1
Catalogue of Total Cell Count values
Could you keep your reply to the number by itself?

As a guide, the following entries are already answered.
N#Cc1cccc(C(=O)Nc2cc(-c3ccccc3)nn2-c2ccccc2)c1
332
C=CC(=O)Nc1cc(-n2c(=O)ccc3cnc4ccc(-c5ccc(NS(C)(=O)=O)cc5)cc4c32)ccc1C
204
Cc1c(P(=S)(c2ccccc2)c2ccccc2)n2ccccc2[n+]1C/C=C/c1ccccc1.[Br-]
379

As a next step, examine the compound that follows.
Consider Oc1cccc(-c2nc(N3CCOCC3)c3oc4ncccc4c3n2)c1 [PI-103] . Its measured Total Cell Count is 307

----------
test system: Fibroblast; test: Multiplex assay against human fibroblast; assay type: toxicity, cell-based; conditions: 24 h, 10 µM, compound concentration 10 uM, replicate 1
Returns Condition met if the recorded Population Mitotic Cells (%) is greater than or equal to 40%, and Condition not met otherwise.

N#Cc1cccc(C(=O)Nc2cc(-c3ccccc3)nn2-c2ccccc2)c1
Condition met
CCCCN(CC)c1nc(C)nc2c1c(C)cn2-c1c(C)cc(C)cc1C.Cl
Condition not met
CC(C)[C@H](CO)Nc1nc(Nc2cccc(Cl)c2)c2ncn(C(C)C)c2n1
Condition not met
Cl.Cn1c2c(c3ccc(Cl)c(Cl)c31)C(C#N)C1(CCNCC1)NC2=O (stereo not drawn)
Condition not met
CC(C)c1cc(Nc2nc(N3CCC[C@H](N)C3)ncc2C(N)=O)cc(C(C)C)n1
Condition not met
Cc1ccc(S(=O)(=O)NC2c3ccccc3Oc3ccccc32)cc1
Condition not met
Oc1cccc(-c2nc(N3CCOCC3)c3oc4ncccc4c3n2)c1
Condition not met
CN(c1cc(C(F)(F)F)nc(OCCC(=O)O)n1)c1cccc2c1CCC2
Condition met

Ask | Please tell me: is the molecule `Cc1c(P(=S)(c2ccccc2)c2ccccc2)n2ccccc2[n+]1C/C=C/c1ccccc1.[Br-]` at or over 40% in terms of Population Mitotic Cells (%)?
Reply | Condition not met

Ask | Check if Population Mitotic Cells (%) >= 40% (inclusive). Item: `CC(/C=C1\SC(=S)N(CCCC(=O)Nc2ccc(C(=O)O)c(O)c2)C1=O)=C\c1ccccc1`
Reply | Condition met
